# System: NCI/ADR-RES ovarian
# MEASUREMENT PROTOCOL: NCI tumour cell line growth inhibition, 48 h; in the data active = GI50 below about 0.43 µM; inactive = the rest
Parameter call: string, one of T (active), F (inactive)

Consider the worked cases shown below.
>>> df
                           structure_smiles  category_label
0     O=C(/C=C/c1ccccc1)c1c[nH]c2ccccc2c1=O               F
1  COc1ccc(C[n+]2c3ccccc3n3c4ccc(N)cc4ccc32)c(OC)c1OC               F
2     COc1cc(/C=N/Nc2ncnc3c2cnn3C(C)C)ccc1O               F
3  COc1cccc(C(=O)Nc2ccc(CN3CCc4nc5cc(OC)c(OC)cc5cc43)cc2)c1               F
4     NC(=O)c1cc(-c2ccncc2)cc(-c2ccccc2)c1N               F

# ---- query molecule ----
**Q:** What outcome does the record of this test show for Cc1cc2cccnc2c2ncccc12 ?
**A:** T

---

# Test system: NCI-H23 lung
# MEASUREMENT PROTOCOL: NCI tumour cell line growth inhibition, 48 h
MEASUREMENT TYPE: TGI

Below, 3 compounds whose answers are already recorded.
                                  compound  target_entity  measurement_type  value_measured
0      COc1cc2ccccc2c2cc([N+](=O)[O-])oc12   NCI-H23 lung               TGI         4.18 µM
1            O=C(O)c1c[nH]c2c(=O)[nH]cnc12   NCI-H23 lung               TGI        > 100 µM
2  Clc1ccccc1C(n1ncc2ccccc21)n1ncc2ccccc21   NCI-H23 lung               TGI        > 100 µM

Consider Cc1nc2ccccc2c(=O)n1/N=C(\N=Nc1cc(Cl)ccc1Cl)c1cccc(-c2ccco2)c1 . Its measured TGI is > 100 µM

Consider O=C(c1ccccc1)C(c1ccccc1)C1(O)C(=O)Nc2ccccc21 (stereo unspecified) . Its measured TGI is > 100 µM

Consider CN1CCN(c2ccc(-c3ccc4ncc(C#N)c(Nc5ccc(F)c(Cl)c5)c4c3)cc2)CC1 . Its measured TGI is 41.5 µM

---

# Test system: SF-268 CNS
# MEASUREMENT PROTOCOL: NCI tumour cell line growth inhibition, 48 h
MEASUREMENT TYPE: TGI

Below, 3 molecules whose answers are already recorded.
MOLECULE	TARGET ENTITY	TGI
CO[C@H]1O[C@@H]2CO[C@@H](c3ccccc3)O[C@H]2[C@@H]2CC=CCC[C@]12O	SF-268 CNS	51 µM
Cn1cc(C2=C(c3c4n(c5ccccc35)CCCC4)C(=O)NC2=O)c2ccccc21	SF-268 CNS	> 25 µM
Cc1cc(Cc2cc(C)c(O)c(C)c2)cc(C)c1O	SF-268 CNS	86.2 µM

Consider NC(=O)c1cc(-c2ccncc2)cc(-c2ccccc2)c1N . Its measured TGI is > 25 µM

Consider Cc1nc2ccccc2c(=O)n1/N=C(\N=Nc1cc(Cl)ccc1Cl)c1cccc(-c2ccco2)c1 . Its measured TGI is > 100 µM

Consider CC12CCC([C@H](N3CCOCC3)/C1=N\OCCN1CCCC1)C2(C)C (some centres undefined) . Its measured TGI is > 100 µM

Consider Cc1cc(N2CCN(C)CC2)nc(NCc2cc(Nc3ccnc4cc(Cl)ccc34)ccc2F)n1 . Its measured TGI is 7.76 µM

Consider Oc1[nH]c2ccccc2c1N=NC(=S)N1CCCCC1 . Its measured TGI is 14.3 µM

Consider C=CCn1c(=O)c2cnc(Nc3ccc(N4CCN(C)CC4)cc3)nc2n1-c1ccc2c(n1)[C@@](O)(CC)CC2 . Its measured TGI is > 63.5 µM

Where these numbers come from: PubChem BioAssay (NCI)
